# CONDITION DETAILS: human, 4 h, 500 ng/mL
# % from t0 per record follows

COMPOUND | % from t0 [%]
O=C(C1CCCCC1)N1CCN(c2nc(=O)c3cc(C(F)(F)F)cc([N+](=O)[O-])c3s2)CC1 [Met oxo] | -8
O=c1nc(N2CCN(CC3CCCCC3O)CC2)sc2c([N+](=O)[O-])cc(C(F)(F)F)cc12 (stereo not drawn) [Met 2-OH] | -26
O=C1CCCC(CN2CCN(c3nc(=O)c4cc(C(F)(F)F)cc([N+](=O)[O-])c4s3)CC2)C1 (stereo not drawn) [Met 3-oxo] | -50
O=c1nc(N2CCN(CC3CCCC(O)C3)CC2)sc2c([N+](=O)[O-])cc(C(F)(F)F)cc12 (stereo not drawn) [Met 3-OH] | 1
O=c1nc(N2CCN(CC3CCCCC3)CC2)sc2c([N+](=O)[O-])cc(C(F)(F)F)cc12 [PBTZ169, macozinone] | -3
O=c1nc(N2CCN(CC3(O)CCCCC3)CC2)sc2c([N+](=O)[O-])cc(C(F)(F)F)cc12 [Met 1-OH] | -11
